Biological target: MDM2 (Homo sapiens, UniProt Q00987)
Sequence (Q00987 whole entry, species assumed): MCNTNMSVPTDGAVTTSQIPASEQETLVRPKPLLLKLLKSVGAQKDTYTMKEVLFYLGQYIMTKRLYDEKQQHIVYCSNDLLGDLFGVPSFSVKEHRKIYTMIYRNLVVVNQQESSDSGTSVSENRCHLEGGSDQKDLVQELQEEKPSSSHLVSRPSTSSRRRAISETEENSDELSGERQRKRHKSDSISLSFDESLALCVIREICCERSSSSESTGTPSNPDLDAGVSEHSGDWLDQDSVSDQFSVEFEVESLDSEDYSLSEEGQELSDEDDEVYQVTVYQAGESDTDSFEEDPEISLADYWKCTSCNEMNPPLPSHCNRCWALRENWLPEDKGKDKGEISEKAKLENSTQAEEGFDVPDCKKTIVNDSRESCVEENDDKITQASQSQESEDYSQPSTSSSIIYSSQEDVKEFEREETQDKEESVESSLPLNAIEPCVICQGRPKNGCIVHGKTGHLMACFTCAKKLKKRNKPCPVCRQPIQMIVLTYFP
Assay: HTRF assay of inhibition of the p53-MDM2 interaction
Settings: GST-MDM2 / biotinylated p53 peptide, bsa 0.02%
experimental.endpoint: IC50 (nM)

COC(=O)c1ccc(NC(=O)[C@@H]2N[C@@H](CC(C)(C)C)[C@](C#N)(c3ccc(Br)cn3)[C@H]2c2cccc(Cl)c2F)cc1 (racemic) [Example 34] ... 201
CC(C)(C)C[C@@H]1N[C@@H](C(=O)NCC[C@H](O)CO)[C@H](c2cccc(Cl)c2F)[C@@]1(C#N)c1ncc(Cl)cc1F (mixture of isomers) [Example 25] ... 1230
CC(C)(C)C[C@@H]1N[C@@H](C(=O)NCC[C@H](O)CO)[C@H](c2cccc(Cl)c2)[C@@]1(C#N)c1cccnc1 (mixture of isomers) [Example 39] ... 1970

A. CC(C)(C)C[C@@H]1N[C@@H](C(=O)NCC[C@H](O)CO)[C@H](c2cccc(Cl)c2)[C@@]1(C#N)c1cc(Br)cs1 (mixture of isomers) [Example 7]
B. CC(C)(C)C[C@@H]1N[C@@H](C(=O)NCC[C@H](O)CO)[C@H](c2cccc(Cl)c2)[C@@]1(C#N)c1ccc(Cl)nc1 (mixture of isomers) [Example 44]
// query Hi, I'm comparing A with B and wondering which one has the bigger number for IC50. Any idea? Which one? Tell me its label.
// result A
(A: 5860 nM, B: 61 nM)
